Assign inhibition to each entry below.
Target: Receptor tyrosine-protein kinase erbB-2 (Homo sapiens) (UniProt P04626)
Sequence (P04626 whole entry): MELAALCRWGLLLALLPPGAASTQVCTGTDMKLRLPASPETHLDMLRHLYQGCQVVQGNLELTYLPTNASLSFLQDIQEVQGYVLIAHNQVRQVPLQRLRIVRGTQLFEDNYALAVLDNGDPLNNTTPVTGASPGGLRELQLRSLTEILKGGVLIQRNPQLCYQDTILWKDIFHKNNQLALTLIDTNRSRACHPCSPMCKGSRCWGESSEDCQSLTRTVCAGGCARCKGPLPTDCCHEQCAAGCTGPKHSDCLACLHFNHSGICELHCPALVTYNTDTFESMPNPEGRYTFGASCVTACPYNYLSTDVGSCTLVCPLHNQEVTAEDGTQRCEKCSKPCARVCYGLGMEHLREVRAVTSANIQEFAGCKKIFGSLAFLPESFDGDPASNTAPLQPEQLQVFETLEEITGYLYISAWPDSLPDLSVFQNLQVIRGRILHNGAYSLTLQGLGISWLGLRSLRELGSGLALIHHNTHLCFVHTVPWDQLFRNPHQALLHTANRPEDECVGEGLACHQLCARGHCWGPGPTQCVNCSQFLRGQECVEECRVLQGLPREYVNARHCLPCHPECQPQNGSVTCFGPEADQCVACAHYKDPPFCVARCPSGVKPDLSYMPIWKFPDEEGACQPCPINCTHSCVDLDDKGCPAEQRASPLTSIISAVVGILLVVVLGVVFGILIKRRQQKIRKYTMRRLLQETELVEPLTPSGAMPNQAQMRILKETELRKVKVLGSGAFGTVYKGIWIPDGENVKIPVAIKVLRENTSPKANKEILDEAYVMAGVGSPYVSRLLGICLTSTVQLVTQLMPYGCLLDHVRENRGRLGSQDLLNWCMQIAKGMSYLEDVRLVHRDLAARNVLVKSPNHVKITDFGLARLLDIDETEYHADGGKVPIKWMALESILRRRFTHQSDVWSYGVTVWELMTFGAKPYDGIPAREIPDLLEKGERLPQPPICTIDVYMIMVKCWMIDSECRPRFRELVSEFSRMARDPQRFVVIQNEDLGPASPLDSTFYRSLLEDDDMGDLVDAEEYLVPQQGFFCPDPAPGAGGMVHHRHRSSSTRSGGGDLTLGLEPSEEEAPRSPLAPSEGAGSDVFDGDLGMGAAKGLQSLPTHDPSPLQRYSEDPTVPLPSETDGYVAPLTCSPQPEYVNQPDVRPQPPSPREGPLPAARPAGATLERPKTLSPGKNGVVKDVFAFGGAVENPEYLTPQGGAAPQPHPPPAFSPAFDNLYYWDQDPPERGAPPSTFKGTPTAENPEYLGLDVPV
Details: at 1 µM
Description: GSK_PKIS: ERBB2 mean inhibition at 1 uM [Nanosyn]
Provide the measurement as a number trailed by its unit.

// below: answered compounds
COc1ccc2cc(-c3c(-c4ccncc4)nc(-c4ccc([S+](C)[O-])cc4)n3C)ccc2c1 (stereo not given); -0.38%
Fc1cccc(COc2ccc(Nc3ncnc4sc(-c5cccs5)cc34)cc2Cl)c1; 3.46%

Each compound below has a recorded value; state its inhibition.
1. COc1cc2c(cc1Nc1nc(N3CCc4ccccc43)c3cc[nH]c3n1)N(C(=O)CN(C)C)CC2
2. Cc1nn(C)c2cc(N(C)c3ccnc(Nc4cccc(S(N)(=O)=O)c4)n3)ccc12

1: -0.36%; 2: 10.1%

Each compound below has a recorded value; state its inhibition.
1. COc1cc2ncn(-c3cc(O[C@H](C)c4ccccc4Cl)c(C(N)=O)s3)c2cc1OC
2. O=C1Nc2ccc(C(=O)c3ccco3)cc2C1=Cc1cc(Cl)c(O)c(Cl)c1
3. COc1cc2ncn(-c3cc(OCc4ccccc4C(F)(F)F)c(C(N)=O)s3)c2cc1OC
4. CN1CCC(C(=O)Nc2n[nH]c3nnc(-c4ccccc4)cc23)CC1
5. COc1cccc(-n2ncc3c(N/N=C/c4cccc(F)c4)ncnc32)c1

1: 7.82%; 2: 4.54%; 3: 4.42%; 4: 14.2%; 5: -0.99%

Request the reported inhibition associated with c1cnn2ncc(-c3ccnc(Nc4ccc5c(c4)OCCO5)n3)c2c1
2.67%

---

Molecular target: Inhibitor of nuclear factor kappa-B kinase subunit epsilon (Homo sapiens) (UniProt Q14164);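 also: mean inhibition of IKKε reported, from the GSK PKIS dataset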
Sequence (Q14164 whole entry): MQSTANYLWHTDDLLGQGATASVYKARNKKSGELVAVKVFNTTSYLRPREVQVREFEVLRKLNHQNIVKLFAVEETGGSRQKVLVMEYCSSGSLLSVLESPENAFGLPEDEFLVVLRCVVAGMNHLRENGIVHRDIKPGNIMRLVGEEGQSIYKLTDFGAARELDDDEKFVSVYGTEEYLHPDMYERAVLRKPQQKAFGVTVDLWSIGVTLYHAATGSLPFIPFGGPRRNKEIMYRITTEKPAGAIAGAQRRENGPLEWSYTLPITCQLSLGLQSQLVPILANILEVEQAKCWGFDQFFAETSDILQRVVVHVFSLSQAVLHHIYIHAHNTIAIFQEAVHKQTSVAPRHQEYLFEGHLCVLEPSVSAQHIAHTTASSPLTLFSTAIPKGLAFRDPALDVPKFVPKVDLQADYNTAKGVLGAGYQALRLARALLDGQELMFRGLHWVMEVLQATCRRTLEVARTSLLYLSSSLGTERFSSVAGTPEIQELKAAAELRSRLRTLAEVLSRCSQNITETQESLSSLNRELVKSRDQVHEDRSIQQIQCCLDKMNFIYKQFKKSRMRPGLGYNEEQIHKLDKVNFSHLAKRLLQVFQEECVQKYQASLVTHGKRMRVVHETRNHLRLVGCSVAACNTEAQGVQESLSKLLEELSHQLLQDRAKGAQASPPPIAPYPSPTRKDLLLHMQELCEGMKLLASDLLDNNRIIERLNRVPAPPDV
Conditions: at 0.1 µM
Assign inhibition to each entry below.
Numbers only, in %.

// below: answered compounds
CS(=O)(=O)CCNCc1ccc(-c2ccc3ncnc(Nc4ccc(OCc5ccccc5)c(Cl)c4)c3c2)o1; 0.17
NS(=O)(=O)c1ccc(N/N=C2\C(=O)Nc3ccc(C(=O)NCCc4c[nH]cn4)cc32)cc1; 7.82
CS(=O)(=O)CCNCc1ccc(-c2ccc3ncnc(Nc4ccc(OCc5cccc(F)c5)c(C(F)(F)F)c4)c3c2)o1; 5.42
CC1=C(C(=O)Nc2ccc3[nH]ncc3c2)C(c2ccc(Cl)c(Cl)c2)CC(=O)N1 (centres undefined); 0.83
Nc1ncnc2occ(-c3ccc(NC(=O)Nc4cccc(C(F)(F)F)c4)cc3)c12; 8.03
O=C1NC(=O)C(N2CCc3ccccc32)=C1c1ccc(Cl)cc1; 3.79

Each compound below has a recorded value; state its inhibition.
1. COc1cc2c(cc1Nc1nc(N3CCc4ccccc43)c3cc[nH]c3n1)N(C(=O)CN(C)C)CC2
2. NCc1ccc(-c2nc(-c3ccc(Cl)c(O)c3)c(-c3ccncc3)[nH]2)cc1
3. COc1ccccc1Nc1ncc(-c2ccccc2)o1

1: 0.88; 2: 1.2; 3: 9.49

---

Assign inhibition to each entry below.
Molecular target: Serine/threonine-protein kinase Nek2 (Homo sapiens) (UniProt P51955);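 also: mean inhibition value from the GSK PKIS kinase screening panel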
Sequence (P51955 whole entry): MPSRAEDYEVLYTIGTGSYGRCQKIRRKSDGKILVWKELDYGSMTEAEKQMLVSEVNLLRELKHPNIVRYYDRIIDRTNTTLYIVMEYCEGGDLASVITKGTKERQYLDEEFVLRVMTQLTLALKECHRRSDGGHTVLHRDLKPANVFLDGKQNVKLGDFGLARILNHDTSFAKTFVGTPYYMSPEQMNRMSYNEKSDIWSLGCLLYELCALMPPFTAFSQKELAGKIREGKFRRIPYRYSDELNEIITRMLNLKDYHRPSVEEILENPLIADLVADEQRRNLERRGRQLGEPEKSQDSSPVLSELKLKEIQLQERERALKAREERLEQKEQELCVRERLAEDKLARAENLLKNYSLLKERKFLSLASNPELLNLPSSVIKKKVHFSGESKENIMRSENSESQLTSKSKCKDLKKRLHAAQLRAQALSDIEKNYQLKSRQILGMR
Conditions: at 0.1 µM
Answers are plain numbers, in %.

COc1cc(C=NNc2ncnc3c2cnn3-c2ccccc2)ccc1O; 2.6
COc1cc2ncn(-c3cc(O[C@@H](C)c4ccccc4Cl)c(C(N)=O)s3)c2cc1OC; 5.52
O=C(Nc1n[nH]c2nc(-c3ccco3)c(Br)cc12)C1CC1; 4.03
Nc1nc(-c2ccc3c(c2)C(=Cc2cc(Br)c(O)c(Br)c2)C(=O)N3)cs1; -0.41
COC(=O)Nc1nc2cc(Oc3cccc(NC(=O)Nc4cc(C(F)(F)F)ccc4F)c3)ccc2[nH]1; 0.79

Each molecule below has a recorded value; state its inhibition.
1. CCn1c(-c2nonc2N)nc2cncc(C(=O)N3CCNCC3)c21
2. COc1cc2ncn(-c3cc(OCc4ccccc4Cl)c(C(N)=O)s3)c2cc1OC
3. NC(=O)c1ccc(-c2nc(-c3ccccn3)c(-c3ccc4c(c3)OCO4)[nH]2)cc1
4. Cc1cc(O)cc(C)c1/C=C/c1cncc(-c2nn[nH]n2)c1
5. CC(C)=Cc1cccc2c1/C(=N/Nc1ccc(S(N)(=O)=O)cc1)C(=O)N2
6. COc1cccc(-n2ncc3c(N/N=C/c4cccc(F)c4)ncnc32)c1
7. NS(=O)(=O)c1ccc(N/N=C2\C(=O)Nc3ccc(C(=O)NCCc4c[nH]cn4)cc32)cc1

[3.46, 3.49, 2.44, 5.36, -1.83, 3.27, 5.57]
